Value source: ChEMBL document CHEMBL3769402

Target: Cholesteryl ester transfer protein (Homo sapiens)
Sequence (P11597 whole entry): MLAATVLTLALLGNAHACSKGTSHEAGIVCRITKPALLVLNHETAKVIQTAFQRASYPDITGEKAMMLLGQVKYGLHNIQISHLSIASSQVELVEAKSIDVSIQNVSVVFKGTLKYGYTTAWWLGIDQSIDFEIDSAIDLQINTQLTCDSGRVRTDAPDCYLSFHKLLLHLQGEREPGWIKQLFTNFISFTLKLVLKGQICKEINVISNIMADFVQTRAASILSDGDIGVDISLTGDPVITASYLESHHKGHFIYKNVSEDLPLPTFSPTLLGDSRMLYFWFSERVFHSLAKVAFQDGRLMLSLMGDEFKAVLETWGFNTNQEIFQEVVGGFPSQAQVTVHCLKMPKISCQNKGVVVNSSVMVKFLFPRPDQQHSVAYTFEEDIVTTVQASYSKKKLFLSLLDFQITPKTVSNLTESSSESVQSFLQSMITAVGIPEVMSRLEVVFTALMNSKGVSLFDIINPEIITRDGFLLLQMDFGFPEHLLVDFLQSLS
Test: Inhibition of full-length human recombinant CETP expressed in CHO cells by BODIPY-CE dye based fluorescence assay
parameter: IC50 (µM)

{"query smiles": "CCOC(=O)c1ccc(NC(=O)CCN(Cc2ccc(F)cc2)c2ccc(-c3ccccc3)cc2)cc1", "unit of measure": "µM", "quantitative readout": 16.7}
{"query smiles": "COc1ccc(N2CCN(C(=O)CCN(Cc3ccc(F)cc3)c3ccc(Cl)c(Cl)c3)CC2)cc1", "unit of measure": "µM", "quantitative readout": 4.9}

(P) CCOC(=O)c1ccc(NC(=O)CCN(Cc2ccc(C(F)(F)F)cc2)c2ccc(Cl)c(Cl)c2)cc1
(Q) CCOC(=O)c1ccc(N2CCN(C(=O)CCN(Cc3ccc(C(F)(F)F)cc3)c3ccc(Cl)c(Cl)c3)CC2)cc1
[ask] Response body: label of entry with the larger IC50; valid values P , Q . Refer to your chosen item by its label in the answer.
[reply] Q
